The binders listed here are annotated with their optical density.
Target: mouse ACVR2A (mouse, UniProt P27038 20-135, limits assumed); also: test concentration or dose not given here
Sequence (P27038 20-135 limits assumed): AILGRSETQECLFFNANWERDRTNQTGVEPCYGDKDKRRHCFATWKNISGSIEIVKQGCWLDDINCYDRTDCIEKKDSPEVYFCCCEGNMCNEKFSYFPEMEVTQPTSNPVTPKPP
Test: ELISA
Give just the number in OD; leave the unit off.

Illustrative cases are given below, each with its answer.
[
  {
    "binder": "369_G10 (antibody, V domains shown, Group I) VH: EVQLLESGGGLVQPGGSLRLSCAASGFTFSSYGMHWVRQAPGKGLEWVASINYNGGYTSYADSVKGRFTISRDNSKNTLYLQMNSLRAEDTAVYYCARAANWHDTALDYWGQGTLVTVSS VL: DIQMTQSPSSLSASVGDRVTITCRASQSILSYLNWYQQKPGKAPKLVIYAATSRASGVPSRFSGSGSGTDFTLTISSLQPEDFATYYCQQSYDSPLTFGGGTKVEIK",
    "value-observed": 3.29
  },
  {
    "binder": "375_A04 (antibody, V domains shown, Group I) VH: EVQLLESGGGLVQPGGSLRLSCAASGFTFDSYGMNWVRQAPGKGLEWVAGINYNGGYKSYADSVKGRFTISRDNSKNTLYLQMNSLRAEDTAVYYCARAANWHDTALDYWGQGTLVTVSS VL: DIQMTQSPSSLSASVGDRVTITCRASQSILTYLNWYQQKPGKAPKLVIYYVNNLPSGVPSRFSGSGSGTDFTLTISSLQPEDFATYYCQQSYNSPLTFGGGTKVEIK",
    "value-observed": 3.73
  },
  {
    "binder": "367_A08 (antibody, V domains shown, Group III) VH: EVQLLESGGGLVQPGGSLRLSCAASGFTFDSYGMNWVRQAPGKGLEWVAGINYNGGYTSYADSVKGRFTISRDNSKNTLYLQMNSLRAEDTAVYYCARGANWHDTHLDYWGQGTLVTVSS VL: DIQMTQSPSSLSASVGDRVTITCRASQSILTYLNWYQQKPGKAPKLLIYAVTSRASGVPSRFSGSGSGTDFTLTISSLQPEDFATYYCQQSYDSPLTFGGGTKVEIK",
    "value-observed": 2.09
  },
  {
    "binder": "365_G09 (antibody, V domains shown, Group III) VH: EVQLLESGGGLVQPGGSLRLSCAASGFTFSSYSMNWVRQAPGKGLEWVSGINYNGGYKSYADSVKGRFTISRDNSKNTLYLQMNSLRAEDTAVYYCARGANWHDTHLDYWGQGTLVTVSS VL: DIQMTQSPSSLSASVGDRVTITCRASQSIITYLNWYQQKPGKAPKLVIYAATSRASGVPSRFSGSGSGTDFTLTISSLQPEDFATYYCQQSYNSPLTFGGGTKVEIK",
    "value-observed": 2.93
  },
  {
    "binder": "371_D05 (antibody, V domains shown, Group II) VH: EVQLLESGGGLVQPGGSLRLSCAASGFTFDDYGMHWVRQAPGKGLEWVSGINYNGGYTSYADSVKGRFTISRDNSKNTLYLQMNSLRAEDTAVYYCARAATWHDTHLDYWGQGTLVTVSS VL: DIQMTQSPSSLSASVGDRVTITCRASQSILTYLNWYQQKPGKAPKLLIYAASSLQSGVPSRFSGSGSGTDFTLTISSLQPEDFATYYCQQSYDSPLTFGGGTKVEIK",
    "value-observed": 3.11
  }
]

Task: What measured optical density goes with 375_H04 (antibody, V domains shown, Group II) VH: EVQLLESGGGLVQPGGSLRLSCAASGFTFSSYGMHWVRQAPGKGLEWVAGINYNSGYTGYADSVKGRFTISRDNSKNTLYLQMNSLRAEDTAVYYCARAATWHDTHLDYWGQGTLVTVSS VL: DIQMTQSPSSLSASVGDRVTITCRASQSILSYLNWYQQKPGKAPKLVIYAATSRASGVPSRFSGSGSGTDFTLTISSLQPEDFATYYCQQSYSNPLTFGGGTKVEIK ?
Result: 3.16
